Tested on: up to 32 different microorganisms
Experiment: in vitro antibacterial activity (MIC), agar dilution on Brain Heart Infusion (BHI) agar with Steers replicator
Assay type: cell-based
Settings: organism code VV; unit assumed
Method: Representative compounds of the present invention were assayed in vitro for antibacterial activity as follows: Twelve petri dishes containing successive aqueous dilutions of the test compound mixed with 10 mL of sterilized Brain Heart Infusion (BHI) agar (Difco 0148-01-5) were prepared. Each plate was inoculated with 1:100 (or 1:10 for slow-growing strains, such as Micrococcus and Streptococcus) dilutions of up to 32 different microorganisms, using a Steers replicator block. […]
Each entry belongs to exactly one class, chosen by where its MIC falls: LOW: < 0.05 µg/mL; MEDIUM: ≥ 0.05 µg/mL and < 0.2 µg/mL; HIGH: ≥ 0.2 µg/mL

molecule="CCC1OC(=O)C(C)C(=O)C(C)C(OC2OC(C)CC(N(C)C)C2O)C(C)(OCC=Cc2ccc(-c3ccon3)s2)CC(C)C(=O)C(C)C2NC(=O)OC12C (stereo not drawn) [Example 292]" group_label=LOW
molecule="CCC1OC(=O)C(C)C(=O)C(C)C(OC2OC(C)CC(N(C)C)C2O)C(C)(OCC=Cc2ccc(C)c3ccccc23)CC(C)C(=O)C(C)C2NC(=O)OC12C (stereo not drawn) [Example 276]" group_label=HIGH
molecule="CC[C@H]1OC(=O)[C@H](C)C(=O)[C@H](C)[C@@H](O[C@@H]2O[C@H](C)C[C@H](N(C)C)[C@H]2O)[C@@](C)(OCC#Cc2ccccc2)C[C@@H](C)C(=O)[C@H](C)[C@H]2NC(=O)O[C@@]21C [Example 249]" group_label=MEDIUM
molecule="CC[C@H]1OC(=O)[C@H](C)C(=O)[C@H](C)[C@@H](O[C@@H]2O[C@H](C)C[C@H](N(C)C)[C@H]2O)[C@@](C)(OCC#Cc2cnc3ccc([N+](=O)[O-])cc3c2)C[C@@H](C)C(=O)[C@H](C)[C@H]2NC(=O)O[C@@]21C [Example 248]" group_label=LOW
molecule="CCC1OC(=O)C(C)C(=O)C(C)C(OC2OC(C)CC(N(C)C)C2O)C(C)(OCC=Cc2ccc3ncc(-c4ccccc4)cc3c2)CC(C)C(=O)C(C)C2NC(=O)OC12C (stereo not drawn) [Example 273]" group_label=HIGH
molecule="CC[C@H]1OC(=O)[C@H](C)C(=O)[C@H](C)[C@@H](O[C@@H]2O[C@H](C)C[C@H](N(C)C)[C@H]2O)[C@@](C)(OCC=NOc2ccccc2)C[C@@H](C)C(=O)[C@H](C)[C@H]2NC(=O)O[C@@]21C [Example 228]" group_label=HIGH
molecule="CC[C@H]1OC(=O)[C@H](C)C(=O)[C@H](C)[C@@H](O[C@@H]2O[C@H](C)C[C@H](N(C)C)[C@H]2O)[C@@](C)(OCC=NOCc2cccc3ccccc23)C[C@@H](C)C(=O)[C@H](C)[C@H]2NC(=O)O[C@@]21C [Example 235]" group_label=HIGH
molecule="CCC1OC(=O)C(C)C(=O)C(C)C(OC2OC(C)CC(N(C)C)C2O)C(C)(OCC#CC=Cc2ccccc2)CC(C)C(=O)C(C)C2NC(=O)OC12C (stereo not drawn) [Example 291]" group_label=LOW
molecule="CC[C@H]1OC(=O)[C@H](C)C(=O)[C@H](C)[C@@H](O[C@@H]2O[C@H](C)C[C@H](N(C)C)[C@H]2O)[C@@](C)(OCC(=O)c2ccc(F)cc2)C[C@@H](C)C(=O)[C@H](C)[C@H]2NC(=O)O[C@@]21C [Example 240]" group_label=HIGH
molecule="CC[C@H]1OC(=O)[C@H](C)C(=O)[C@H](C)[C@@H](O[C@@H]2O[C@H](C)C[C@H](N(C)C)[C@H]2O)[C@@](C)(OCC=NOCc2ccc3ncccc3c2)C[C@@H](C)C(=O)[C@H](C)[C@H]2NC(=O)O[C@@]21C [Example 234]" group_label=MEDIUM

----------
The following molecules are shown together with reported MIC values.
test system: up to 32 different microorganisms; assay: in vitro antibacterial activity (MIC), agar dilution on Brain Heart Infusion (BHI) agar with Steers replicator; format: cell-based; details: Nocardia Asteroides ATCC9970 (code VV); unit assumed
MEASUREMENT NAME: MIC (µg/mL)

molecule="CC[C@H]1OC(=O)[C@H](C)C(=O)[C@H](C)[C@@H](O[C@@H]2O[C@H](C)C[C@H](N(C)C)[C@H]2O)[C@@](C)(OCC(O)C#N)C[C@@H](C)C(=O)[C@H](C)[C@@H](O)[C@]1(C)O (stereo partly drawn)" value_measured=0.39
molecule=C=CCO[C@@]1(C)C[C@@H](C)C(=O)[C@H](C)[C@H]2NC(=O)O[C@]2(C)[C@@H](CC)OC(=O)[C@H](C)C(=O)[C@H](C)[C@H]1O[C@@H]1O[C@H](C)C[C@H](N(C)C)[C@H]1O value_measured=1.56
molecule=CC[C@H]1OC(=O)[C@H](C)C(=O)[C@H](C)[C@@H](O[C@@H]2O[C@H](C)C[C@H](N(C)C)[C@H]2O)[C@@](C)(OCC=NO)C[C@@H](C)C(=O)[C@H](C)[C@@H](O)[C@]1(C)O value_measured=6.2
molecule=CC[C@H]1OC(=O)[C@H](C)C(=O)[C@H](C)[C@@H](O[C@@H]2O[C@H](C)C[C@H](N(C)C)[C@H]2O)[C@@](C)(OCC=Cc2ccc(Cl)cc2)C[C@@H](C)C(=O)[C@H](C)[C@@H](O)[C@]1(C)O value_measured=3.1
molecule="CCC1OC(=O)C(C)C(=O)C(C)C(OC2OC(C)CC(N(C)C)C2O)C(C)(OCC=Cc2cnc3ccc(Cl)cc3c2)CC(C)C(=O)C(C)C2NC(=O)OC12C (stereo not drawn)" value_measured=0.02
molecule="CCC1OC(=O)C(C)C(=O)C(C)C(OC2OC(C)CC(N(C)C)C2O)C(C)(OCC=Cc2cccc3ncccc23)CC(C)C(=O)C(C)C2NC(=O)OC12C (stereo not drawn)" value_measured=0.1
molecule="CCC1OC(=O)C(C)C(=O)C(C)C(OC2OC(C)CC(N(C)C)C2O)C(C)(OCC=Cc2ccc3[nH]ccc3c2)CC(C)C(=O)C(C)C2NC(=O)OC12C (stereo not drawn)" value_measured=0.1
molecule=CC[C@H]1OC(=O)[C@H](C)C(=O)[C@H](C)[C@@H](O[C@@H]2O[C@H](C)C[C@H](N(C)C)[C@H]2O)[C@@](C)(OCC=Cc2ccccc2)C[C@@H](C)C(=O)[C@H](C)[C@H]2OC(=O)O[C@@]21C value_measured=0.1
molecule=CC[C@H]1OC(=O)[C@H](C)C(=O)[C@H](C)[C@@H](O[C@@H]2O[C@H](C)C[C@H](N(C)C)[C@H]2O)[C@@](C)(OCC=Cc2cnc3ccccc3c2)C[C@@H](C)C(=O)[C@H](C)[C@@H](O)[C@]1(C)O value_measured=0.1
molecule=CC[C@H]1OC(=O)[C@H](C)C(=O)[C@H](C)[C@@H](O[C@@H]2O[C@H](C)C[C@H](N(C)C)[C@H]2O)[C@@](C)(OCC=Cc2ccccc2)C[C@@H](C)C(=O)[C@H](C)[C@H]2NC(=O)O[C@@]21C value_measured=0.02
molecule="C=CCOC1(C)CC(C)C(=O)C(C)C(O)C(C)(O)C(CC)OC(=O)C(C)C(=O)C(C)C1OC1OC(C)CC(N(C)C)C1O (stereo not drawn)" value_measured=6.3
molecule="CCC1OC(=O)C(C)C(=O)C(C)C(OC2OC(C)CC(N(C)C)C2O)C(C)(OCC=Cc2ccc3c(c2)OCO3)CC(C)C(=O)C(C)C2NC(=O)OC12C (stereo not drawn)" value_measured=0.39
molecule="CCC1OC(=O)C(C)C(=O)C(C)C(OC2OC(C)CC(N(C)C)C2O)C(C)(OCC=Cc2cnc3ccccc3c2)CC(C)C(=O)C(C)C2N(CCN(C)C)C(=O)OC12C (stereo not drawn)" value_measured=0.2
molecule=CC[C@H]1OC(=O)[C@H](C)C(=O)[C@H](C)[C@@H](O[C@@H]2O[C@H](C)C[C@H](N(C)C)[C@H]2O)[C@@](C)(OCCN)C[C@@H](C)C(=O)[C@H](C)[C@@H](O)[C@]1(C)O value_measured=12.5
molecule="CCC1OC(=O)C(C)C(=O)C(C)C(OC2OC(C)CC(N(C)C)C2O)C(C)(OCC=Cc2cncc3ccccc23)CC(C)C(=O)C(C)C2NC(=O)OC12C (stereo not drawn)" value_measured=0.1
molecule="CCC1OC(=O)C(C)C(=O)C(C)C(OC2OC(C)CC(N(C)C)C2OC(C)=O)C(C)(OCC=Cc2cnc3ccccc3c2)CC(C)C(=O)C(C)C2NC(=O)OC12C (stereo not drawn)" value_measured=0.02
molecule=CC[C@H]1OC(=O)[C@H](C)C(=O)[C@H](C)[C@@H](O[C@@H]2O[C@H](C)C[C@H](N(C)C)[C@H]2O)[C@@](C)(OCC=Cc2cnc3ccccc3c2)C[C@@H](C)C(=O)[C@H](C)[C@H]2OC(=O)O[C@@]21C value_measured=0.05
molecule=CC[C@H]1OC(=O)[C@H](C)C(=O)[C@H](C)[C@@H](O[C@@H]2O[C@H](C)C[C@H](N(C)C)[C@H]2O)[C@@](C)(OCCCc2ccccc2)C[C@@H](C)C(=O)[C@H](C)[C@H]2OC(=O)O[C@@]21C value_measured=0.39

Values from patent USRE39591E1
